Molecular target: T1, DFNB31_1, Q9P202
T1 sequence (Q9P202 135-233, limits assumed, looked up): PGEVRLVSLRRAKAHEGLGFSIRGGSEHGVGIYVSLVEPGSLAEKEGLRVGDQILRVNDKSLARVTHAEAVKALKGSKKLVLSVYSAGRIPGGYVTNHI
Assay: holdup assay
Design: key: below the threshold = too weak to quantify, mostly under pKd 3.1 to 4
Settings: plain residues with an end cap or a label only (N-terminal biotin on a linker: ttds)
The following binders are shown together with reported pKd values.
Assay Readout: pKd

{"Binder": "QRPYRRESEI [KCNJ12, Q14500]", "Assay Readout": "pKd", "Quantitative Result": 4.02}
{"Binder": "GARVSKETPL [MAPK12, P53778]", "Assay Readout": "pKd", "Quantitative Result": 3.95}
{"Binder": "NPDALPETLV [ARHGAP6, O43182]", "Assay Readout": "pKd", "Quantitative Result": 4.1}
{"Binder": "GRLLGLETNV [ARHGEF26, Q96DR7]", "Assay Readout": "pKd", "Quantitative Result": 3.91}

FYI, the data here is from paper PMC9482650.
